Values from patent US8476197B2

experimental.conditions: pH 7.5
Items are presented alongside their recorded Log P.
# respond with the number and nothing more

1. COC(=O)C(C#N)=C(NC(C)c1sc(C)nc1C)c1cccnc1Cl (centres unmarked)	2.17
2. COC(=O)C(NC(=C(C#N)C(=O)OCC(F)(F)F)c1cccnc1Cl)C(C)C (centres unmarked)	3.14
3. COC(=O)C(C#N)=C(NC(C)c1nc(C)c(C)s1)c1cccnc1Cl (centres unmarked)	2.69
4. CON(C)C(=O)C(C#N)=C(NC(C)C(C)C)c1cccnc1Cl (centres unmarked)	2.67

Next:
query: Request the reported Log P associated with CCOC(=O)C(C#N)=C(Nc1ccccc1F)c1cccnc1Cl
result: 2.85

* * *

experimental.conditions: pH 2.7
Marks after values point to notes of the source that are not given here.
# Log P annotations

1. C=CCOC(=O)C(C#N)=C(NC(C)c1ccccn1)c1cn(C)nc1C(F)F (mixture of isomers)	2.56^[a]
2. CCNC(=O)C(C#N)=C(NC(C)c1nccs1)c1cn(C)nc1C(F)F (racemic)	2.05^[a]
3. COC(=O)C(C#N)=C(NC(C)c1cc(Cl)ccc1Cl)c1cccnc1Cl (stereo not shown)	3.28^[a]

query: Tell me the measured Log P of CCOC(=O)C(C#N)=C(NCc1nccs1)c1conc1C , please.
result: 2.04^[a]

* * *

experimental.conditions: pH 2.7
Marks after values point to notes of the source that are not given here.
Measured Log P by item

Worked cases, Log P given:
1. CCOC(=O)C(C#N)=C(Nc1ccc(OC)cc1)c1sccc1C(F)(F)F	3.62^[a]
2. CCOC(=O)C(C#N)=C(NC(c1cc2ccccc2s1)C(F)(F)F)c1ccsc1I (racemic)	4.81^[a]
3. CCOC(=O)C(C#N)=C(NC(CC)CC)c1cccnc1Cl	3.35^[a]
4. CCOC(=O)C(C#N)=C(Nc1cccc(SC)c1)c1sccc1C(F)(F)F	4.04^[a]
5. CCOC(=O)C(C#N)=C(NC(C)C(N)=O)c1c(C)nn(C)c1Cl (stereo not drawn)	1.58^[a]

query: If you can, please state the reported Log P value of COC(=O)C(C#N)=C(NC1CCCC(C(F)(F)F)C1)c1cccnc1Cl (stereo not drawn) .
result: 3.09^[a]

query: So what's the measured Log P for this one? COC(=O)C(C#N)=C(NC(C)(C)CC(F)(F)F)c1cccnc1Cl
result: 2.34^[a]

query: Endpoint output: Log P of CCOC(=O)C(C#N)=C(NC(C)C(=O)CC)c1cn(C)nc1C(F)F (racemic) . Value?
result: 2.47^[a]

query: What measured Log P goes with CC(NC(=C(C#N)C(=O)N(C)C)c1cn(C)nc1C(F)F)c1nccs1 (stereo not drawn) ?
result: 1.81^[a]

query: Need Log P, item CCOC(=O)C(C#N)=C(NC(C)C(C)(C)C)c1sccc1Br (racemic)
result: 4.41^[a]

query: What does the data say about its Log P? Entry: CCOC(=O)C(C#N)=C(NC(C)C(C)C)c1nc(Cl)ccc1Cl (stereo not drawn)
result: 4.06^[a]

query: Request the reported Log P associated with COC(=O)C(C#N)=C(NC(C)(C)C)c1cccnc1Cl
result: 2.31^[a]

query: Given the entry CCOC(=O)C1(NC(=C(C#N)C(=O)OC)c2cccnc2Cl)CC1 , report its measured Log P.
result: 1.66^[a]

query: Give the measured Log P of CCOC(=O)C(C#N)=C(NC(C)c1sc(C)nc1C)c1sccc1Br (stereo not drawn) .
result: 3.23^[a]

query: So what does the record say about Log P for CCOC(=O)C(C#N)=C(NC(C)COc1ccc(F)cc1)c1cccnc1Cl (stereo not drawn) ?
result: 3.62^[a]

query: What measured Log P goes with CCOC(=O)C(C#N)=C(NC(C)C(=O)NC)c1ccnc2ccccc12 (stereo not drawn) ?
result: 1.8^[a]

query: Please report the recorded Log P for COC(=O)C(C#N)=C(NC(C)CCc1cccc(C)c1)c1cccnc1Cl (stereo not drawn) .
result: 3.68^[a]

query: Item CCOC(=O)C(C#N)=C(NC(C)c1cc(Cl)cc(Cl)n1)c1cccnc1Cl (stereo not drawn) has what recorded Log P?
result: 3.7^[a]

* * *

experimental.conditions: pH 2.7
Marks after values point to notes of the source that are not given here.
endpoint.name: Log P

Some entries whose results are on file:
1. CCOC(=O)C(C#N)=C(NC1(c2ccccn2)CC1)c1cccnc1Cl	2.56^[a]
2. CCNC(=O)C(C#N)=C(NC(C)c1ccccn1)c1cn(C)nc1C(F)F (racemic)	1.86^[a]
3. CCOC(=O)C(C#N)=C(NC(C)c1ccccn1)c1cn(C)nc1C(F)(F)F (racemic)	2.75^[a]
4. COC(=O)C(C#N)=C(NC(C)C(=O)Nc1ccc2ccccc2c1)c1sc(C)nc1C(F)(F)F (racemic)	3.69^[a]
5. CCOC(=O)C(C#N)=C(NCc1ncccc1Cl)c1cccnc1Cl [Compound 1412]	2.78^[a]

query: Which Log P value belongs to CCOC(=O)C(C#N)=C(NC(C)C(C)C)c1cccnc1Cl (stereo not drawn) [Compound 984] ?
result: 3.33

query: # input compound: CCOC(=O)C(C#N)=C(NC(C)c1cncnc1C(F)(F)F)c1cccnc1Cl (stereo not drawn) ; wanted: its Log P
result: 2.63^[a]

query: Need Log P of CCOC(=O)C(C#N)=C(Nc1ccccc1SC)c1cn(C)cc1C(F)(F)F , thanks.
result: 3.73^[a]

query: Looking for the measured Log P of CCOC(=O)C(C#N)=C(Nc1ccc(N(C)C)cc1)c1sccc1C(F)(F)F , can you help?
result: 3.89^[a]

query: If you can, please state the reported Log P value of C=CCOC(=O)C(C#N)=C(NC(C)c1ccccn1)c1cccnc1Cl (stereo not drawn) .
result: 2.66^[a]

query: Reported Log P, compound CC#CC(C)NC(=C(C#N)C(=O)OC)c1cccnc1Cl (stereo not drawn) : ____
result: 2.5^[a]

query: Which measured Log P value corresponds to CCOC(=O)C(C#N)=C(Nc1ccccc1OC(C)C)c1sccc1Br ?
result: 4.46^[a]

query: Please give the measured Log P for this compound: CCOC(=O)C(C#N)=C(NC1CCC1)c1cnn(C)c1Cl
result: 2.82^[a]

query: I am curious: what Log P value has been reported for C#CC1(NC(=C(C#N)C(=O)OC)c2cccnc2Cl)CCCCC1 ?
result: 2.99^[a]

query: Quick one: Log P of C=CCCCC(C=C)NC(=C(C#N)C(=O)OCC)c1ccsc1I (stereo not drawn) ?
result: 4.65^[a]

query: Request the reported Log P associated with CCOC(=O)C(C#N)=C(Nc1cccc(Cl)c1)c1cn(C)nc1C(F)F
result: 3.21^[a]

query: Value lookup for Log P; key = CCOC(=O)C(C#N)=C(NC(C)c1cccc(C)n1)c1cccnc1Cl (stereo not drawn)
result: 2.56^[a]

query: Query (compound): C#CC(C)(C)NC(=C(C#N)C(=O)OCC)c1ccsc1Br ; field requested: Log P
result: 3.42^[a]

* * *

experimental.conditions: pH 2.7
Marks after values point to notes of the source that are not given here.
Listed compounds paired with reported Log P

Consider the worked cases shown below.
1) CCOC(=O)C(C#N)=C(Nc1ccccc1SC)c1sccc1Br [Compound 366]	3.96^[a]
2) CCOC(=O)C(C#N)=C(NC(C)c1cscn1)c1ccnc(Cl)c1Cl (mixture of isomers) [Compound 290]	2.92^[a]
3) COC(=O)C(C#N)=C(NC1COC1)c1cccnc1Cl [Compound 120]	1.35^[a]

query: Would you mind telling me what Log P value was observed for CCOC(=O)C(C#N)=C(NC(C)C(=O)OC)c1sc(C)nc1C(F)(F)F (centres unmarked) [Compound 680] ?
result: 2.94^[a]

query: Reported Log P for CCOC(=O)C(C#N)=C(NC(C)C(C)C)c1ccnc2ccccc12 (centres unmarked) [Compound 1496] : what is it?
result: 3.29^[a]

query: // Log P lookup, key: CCOC(=O)C(C#N)=C(NC(C)(C)C(=O)OC)c1cccnc1Cl [Compound 1274]
result: 2.66^[a]

query: Fill blank: measured Log P of the compound CCCCCCC(C)NC(=C(C#N)C(=O)OCC)c1cn(C)nc1C(F)F (racemic) [Compound 817] is ____.
result: 4.36^[a]

query: Sample CCOC(=O)C(C#N)=C(NC(C)C(=O)OCC)c1sc(C)nc1C(F)(F)F (racemic) [Compound 679] — what was its Log P?
result: 3.29^[a]

* * *

experimental.conditions: pH 2.7
Marks after values point to notes of the source that are not given here.
Measured Log P accompanies every entry in the list below.

Worked set:
1. COC(=O)C(C#N)=C(Nc1ccc(OC(F)F)cc1)c1sc(C)nc1C(F)(F)F	3.31^[a]
2. CCOC(=O)C(C#N)=C(NC(C)c1ccc(Cl)cc1Cl)c1cn(C)nc1C(F)F (racemic)	3.96^[a]
3. CCOC(=O)C(C#N)=C(NC(C)c1nc(C)c(C)s1)c1ccsc1Br (centres unmarked)	3.7^[a]
4. CCOC(=O)C(C#N)=C(Nc1ccccc1SC)c1cn(C)nc1OC	3.06^[a]

// moving on: another record for Log P
query: Looking for the measured Log P of CC(NC(=C(C#N)C(=O)O)c1cccnc1Cl)c1ccccn1 (centres unmarked) , can you help?
result: 1.37^[a]
